- Tested on: MES-SA
- assay_protocol: relative viability vs DMSO control (72 h) (fraction); higher = more viable cells
- assay_context: 0.00457 µM
quantity_measured: relative viability
# answer = number (no unit)

Worked set:
compound | relative viability
Cc1cn(-c2cc(NC(=O)c3ccc(C)c(Nc4nccc(-c5cnccn5)n4)c3)cc(C(F)(F)F)c2)cn1 [Radotinib] | 0.941
Cc1cn(-c2cc(NC(=O)c3ccc(C)c(Nc4nccc(-c5cccnc5)n4)c3)cc(C(F)(F)F)c2)cn1 [Nilotinib] | 0.875

## Task Report relative viability for C1=N/C2=N/c3ccc(OCCN4CCCC4)c(c3)COC/C=C/COCc3cccc(c3)C(=C1)N2 [Pacritinib] please.
## Result 0.951

## Task Report relative viability for C=CC(=O)Nc1cc(Nc2nccc(-c3cn(C)c4ccccc34)n2)c(OC)cc1N(C)CCN(C)C [Osimertinib] please.
## Result 0.932

###

- System: SW982
- assay_protocol: standardised AUC of viability dose-response curve (72 h) (fraction (0-1)); higher = less growth inhibition (more resistant)
Lab note: anything with standardised AUC at or over 0.8 counts as Yes; the rest go in No.

Take a look at these entries with their results.
smiles_entry | experimental_target | answer_label
C1=N/C2=N/c3ccc(OCCN4CCCC4)c(c3)COC/C=C/COCc3cccc(c3)C(=C1)N2 | SW982 | No
CO[C@H]1C[C@@H]2CC[C@@H](C)[C@@](O)(O2)C(=O)C(=O)N2CCCC[C@H]2C(=O)O[C@H]([C@H](C)C[C@@H]2CC[C@@H](O)[C@H](OC)C2)CC(=O)[C@H](C)/C=C(\C)[C@@H](O)[C@@H](OC)C(=O)[C@H](C)C[C@H](C)/C=C/C=C/C=C/1C | SW982 | No
C#Cc1cccc(Nc2ncnc3cc(OCCOC)c(OCCOC)cc23)c1 | SW982 | Yes
COc1cc2nccc(Oc3ccc(NC(=O)NC4CC4)c(Cl)c3)c2cc1C(N)=O | SW982 | Yes

## Task Reported standardised AUC at or above 0.8? C=CC(=O)Nc1cccc(Nc2nc(Nc3ccc(N4CCN(C(C)=O)CC4)cc3OC)ncc2C(F)(F)F)c1
## Result Yes

## Task Reported standardised AUC at or above 0.8? Cc1ccc(NC(=O)c2ccc(CN3CCN(C)CC3)cc2)cc1Nc1nccc(-c2cccnc2)n1
## Result Yes

## Task Reported standardised AUC at or above 0.8? C[C@@H](Oc1cc(-c2cnn(C3CCNCC3)c2)cnc1N)c1c(Cl)ccc(F)c1Cl
## Result No

## Task Reported standardised AUC at or above 0.8? Cc1ccc(C(=O)OCc2ccc([C@@H](CN)C(=O)Nc3ccc4cnccc4c3)cc2)c(C)c1
## Result Yes

## Task Reported standardised AUC at or above 0.8? N#Cc1ccnc(N2C(=O)CC[C@H]2C(=O)N(c2cncc(F)c2)[C@H](C(=O)NC2CC(F)(F)C2)c2ccccc2Cl)c1
## Result Yes

## Task Reported standardised AUC at or above 0.8? Cc1cc(Nc2ncc(Cl)c(Nc3ccccc3S(=O)(=O)C(C)C)n2)c(OC(C)C)cc1C1CCNCC1
## Result Yes

###

- Test system: RD
- assay_protocol: relative viability vs DMSO control (72 h) (fraction); higher = more viable cells
- assay_context: 3.333 µM
quantity_measured: relative viability
# answer = number (no unit)

smiles_entry | relative viability
C=CC(=O)Nc1cccc(Nc2nc(Nc3ccc(N4CCN(C(C)=O)CC4)cc3OC)ncc2C(F)(F)F)c1 | 0.594

## Task Report relative viability for Cc1cn(-c2cc(NC(=O)c3ccc(C)c(Nc4nccc(-c5cnccn5)n4)c3)cc(C(F)(F)F)c2)cn1 please.
## Result 1.07

## Task Report relative viability for FC(F)(F)c1ccc(CNc2ccc(Cc3c[nH]c4ncc(Cl)cc34)cn2)cn1 please.
## Result 1.15

## Task Report relative viability for C#Cc1cccc(Nc2ncnc3cc(OCCOC)c(OCCOC)cc23)c1 please.
## Result 1.04

## Task Report relative viability for CCCCCCCCCCCCCCCCCCOP(=O)([O-])OC1CC[N+](C)(C)CC1 please.
## Result 1.09
